molecular target: PRMT5 (Homo sapiens, UniProt O14744); construct: purchased Viva (custom protein); assay: PRMT5 biochemical IC50 assay with no cofactor; details: PRMT5, no cofactor; read-out: No Cofactor/ rel IC50
Sequence (O14744 whole entry): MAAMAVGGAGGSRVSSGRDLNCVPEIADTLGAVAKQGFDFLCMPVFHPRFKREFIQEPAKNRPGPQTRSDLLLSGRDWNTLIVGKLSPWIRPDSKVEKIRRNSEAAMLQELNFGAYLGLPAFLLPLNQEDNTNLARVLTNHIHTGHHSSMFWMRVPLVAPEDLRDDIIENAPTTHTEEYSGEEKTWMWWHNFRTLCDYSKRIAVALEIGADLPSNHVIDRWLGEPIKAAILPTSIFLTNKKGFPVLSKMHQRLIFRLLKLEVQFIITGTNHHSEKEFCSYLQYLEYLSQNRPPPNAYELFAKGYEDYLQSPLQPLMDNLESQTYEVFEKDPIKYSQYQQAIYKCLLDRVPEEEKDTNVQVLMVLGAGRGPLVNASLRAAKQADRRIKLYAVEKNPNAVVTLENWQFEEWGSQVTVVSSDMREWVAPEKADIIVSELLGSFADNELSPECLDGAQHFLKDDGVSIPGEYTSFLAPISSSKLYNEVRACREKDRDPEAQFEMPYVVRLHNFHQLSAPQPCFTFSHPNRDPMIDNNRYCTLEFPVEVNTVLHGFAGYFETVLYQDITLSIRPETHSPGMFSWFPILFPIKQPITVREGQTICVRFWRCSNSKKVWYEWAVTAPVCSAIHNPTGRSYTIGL
Sequence (Q9BQA1 whole entry partner): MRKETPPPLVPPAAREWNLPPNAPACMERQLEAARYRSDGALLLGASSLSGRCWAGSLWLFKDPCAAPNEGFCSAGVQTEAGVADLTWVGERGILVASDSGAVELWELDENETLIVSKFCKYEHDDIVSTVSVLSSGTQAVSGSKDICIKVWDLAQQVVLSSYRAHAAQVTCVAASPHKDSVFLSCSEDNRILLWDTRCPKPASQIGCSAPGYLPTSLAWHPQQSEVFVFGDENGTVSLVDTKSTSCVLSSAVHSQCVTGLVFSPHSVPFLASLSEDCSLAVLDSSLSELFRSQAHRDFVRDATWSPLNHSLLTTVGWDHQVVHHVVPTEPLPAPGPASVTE
pIC50: −log10 of the molar value.
# pIC50 listing for each entry below

molecule="Cn1nccc1C1CCCCN1C(=O)C(=O)Nc1cncc(C(N)=O)c1 (single isomer, unassigned) [Compound 46]" measured_target="PRMT5 (Homo sapiens, UniProt O14744)" test_value="6.30 to 7.30"

Provide pIC50, tested on PRMT5 (Homo sapiens, UniProt O14744), for Cc1cc(NC(=O)C(=O)N2CC(C)(C)CCC2c2ccccc2)cnc1N (racemic) [Compound 56] . 6.30 to 7.30

Provide pIC50, tested on PRMT5 (Homo sapiens, UniProt O14744), for CCc1cc(NC(=O)C(=O)N2C[C@@H](C)CC[C@@H]2c2cccc(C3CCN(C)CC3)c2)cnc1N . > 7.30

Provide pIC50, tested on PRMT5 (Homo sapiens, UniProt O14744), for Cc1cc(NC(=O)C(=O)N2C[C@H](C)CC[C@H]2c2cccs2)cnc1N (single isomer, unassigned) . > 7.30

Provide pIC50, tested on PRMT5 (Homo sapiens, UniProt O14744), for NC(=O)c1cncc(NC(=O)C(=O)N2CCC3(CC2)OCC2CC23)c1 (stereo not shown) . < 6.30

Provide pIC50, tested on PRMT5 (Homo sapiens, UniProt O14744), for CCc1cc(NC(=O)C(=O)N2C[C@@H](C)CC[C@@H]2c2ccc(N3CCOC4(CN(C)C4)C3)cc2)cnc1N (racemic) [Compound 1329] . 6.30 to 7.30

Provide pIC50, tested on PRMT5 (Homo sapiens, UniProt O14744), for NC(=O)c1cncc(NC(=O)C(=O)N2CCCC3(C2)OC[C@@H]2C[C@@H]23)c1 (mixture of isomers) . < 6.30

The reported numbers originate from patent US11999727B2.
